Molecular target: NEDD4 890-928, P46934
Sequence (P46934 890-928): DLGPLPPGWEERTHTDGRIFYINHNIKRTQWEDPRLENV

# Binder, selected by phage display
measured = [
    ("FLPPYPPQEANRSITS [VPS37A, Q8NEZ2]", "confidence 3 (active)"),
    ("DLHHTPGYPTPPPYPF [C11orf53, Q8IXP5]", "confidence 3 (active)"),
]
